system: OVCAR-3 ovarian; assay: NCI tumour cell line growth inhibition, 48 h
Where a SMILES comes first, the peptide text is derived from it. The star is where a group is joined. Ethyl(2-NMe3+) = C[N+](C)(C)CC*; Boc = CC(C)(C)OC(=O)*
Measured Endpoint: TGI

# Compound, Test Target, Test Result
rows = [
    ("COC(=O)c1c2c(cc3c1CC1(Cc4ccc(C(C)=O)cc4C1)C3)CCC2 (centres undefined)", "OVCAR-3 ovarian", "> 100 µM"),
    ("C/C(=N\\NC(=O)c1ccncc1)c1ccccc1F", "OVCAR-3 ovarian", "> 10 µM"),
    ("O=C(NCCCCCCNC(=O)OCCSCCn1cc(C(=O)NC(=O)OCc2ccccc2)c(=O)[nH]c1=O)OCCSCCn1cc(C(=O)NC(=O)OCc2ccccc2)c(=O)[nH]c1=O", "OVCAR-3 ovarian", "> 100 µM"),
    ("Cc1ccc(N(C(=O)Nc2ccc(F)c(Cl)c2)C2=NCC(C)S2)cc1 (centres undefined)", "OVCAR-3 ovarian", "> 100 µM"),
    ("COc1ccccc1C1c2cc3c(cc2OC(O)(CO)C1C(=O)O)OCO3 (centres undefined) (tested in a mixture with another compound)", "OVCAR-3 ovarian", "> 100 µM"),
    ("CC(NC(=O)C(Cc1ccc(OCC[N+](C)(C)C)cc1)NC(=O)OC(C)(C)C)C(=O)NC(Cc1ccccc1)C(=O)NCC(N)=O (centres undefined) (Boc-Y(Ethyl(2-NMe3+))AFG-NH2; configuration not given here)", "OVCAR-3 ovarian", "60.3 µM"),
    ("Cc1ccc2c(c1)CC1(Cc3c(C)cccc3C1=O)C2=O (centres undefined)", "OVCAR-3 ovarian", "> 100 µM"),
    ("O=C(c1ccccc1)[C@@H]1C[C@H](Sc2ccccc2)c2cc(Cl)ccc2N1", "OVCAR-3 ovarian", "52.2 µM"),
    ("CCCCN(Cc1ccccc1)C(=NC#N)N(Cc1ccccc1)Cc1ccccc1", "OVCAR-3 ovarian", "28.9 µM"),
]
